B1: DLC1 (parent)
chain: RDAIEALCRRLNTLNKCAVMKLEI

Variants of: B1
Experiment: protein stability index of a GFP-peptide fusion (GPS, HEK-293T) (PSI 1-6); higher = more stable;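 also: lentivirally expressed fusions sorted by FACS into six bins by GFP to DsRed ratio, PSI derived from sequencing read proportions per bin multiplied by bin number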
Conditions: c terminus: a fixed tail appended
Reported protein stability index maps to class as: lo (below 2), mid (2 to below 3), hi (3 or more)

residue codes	qualitative label
RDAIEALCRRLNTLNKCAVMKLED [I24D]	lo
RDAIEALCRRLNTLNKCAVMKLKI [E23K]	mid

State the band of RDAIEALCRRLNTYNKCAVMKLEI [L14Y]
hi

Assign a bin to RDAIEALCRRLNTLNKCEVMKLEI [A18E]
mid

For this variant, which bin applies? RDAIEALRRRLNTLNKCAVMKLEI [C8R]
lo

Any idea which band RDAIEAKCRRLNTLNKCAVMKLEI [L7K] is in?
mid

Lab note: sort RDAIEAMCRRLNTLNKCAVMKLEI [L7M] into the matching protein stability index band.
hi

Into which category would you place RDAIEALCRRLNTLNKCAVCKLEI [M20C] ?
mid

Any idea which band RDAIEALCRRLNTLNKMAVMKLEI [C17M] is in?
lo

Lab log: RDAIEALCRRQNTLNKCAVMKLEI [L11Q] — assign protein stability index category
mid

Please let me know in which category the item RDAIEALCRRLNTLNKCAVMKLAI [E23A] belongs.
mid

Looking at RDAIEALCRRLNTLNKCAVMKLFI [E23F] , which class would you pick?
mid

// bin(item) where item = RDAIEALCRRLRTLNKCAVMKLEI [N12R]
lo

Bin? RDAIEALCRRLNTLNKCAVMKLET [I24T]
mid

Which class holds RDAIEALCRRLHTLNKCAVMKLEI [N12H] ?
mid

Each variant maps to one class by protein stability index. Which class for RDAIEALCRRLKTLNKCAVMKLEI [N12K] ?
mid

Exam item: assign HDAIEALCRRLNTLNKCAVMKLEI [R1H] to the correct category.
hi

Which of the defined bands does the recorded protein stability index of RDAILALCRRLNTLNKCAVMKLEI [E5L] sit within?
hi

Bin? RDAIEALARRLNTLNKCAVMKLEI [C8A]
mid

For this variant, which bin applies? RDAIEALCRRLPTLNKCAVMKLEI [N12P]
mid

Where would RDAIEALCRRLNTLNKCAVMKYEI [L22Y] land among the classes by reported protein stability index?
mid

Please report the category associated with RDMIEALCRRLNTLNKCAVMKLEI [A3M] , nothing else.
hi

Which band does RDACEALCRRLNTLNKCAVMKLEI [I4C] fall in?
mid

Looking at RDAIEAVCRRLNTLNKCAVMKLEI [L7V] , which class would you pick?
mid
